Origin of values: patent US20030103986A1

# measured-on: T1, ZTNF4 (Homo sapiens (Human), UniProt Q9Y275 134-285, limits assumed, radioiodinated with 125I (Iodobeads) in the binding assays; unlabeled ZTNF4 used to determine nonspecific binding)
# T1 construct: also called BAFF
# run-description: competitive binding: TACI-Fc against plate-coated TACI-N for 125I-ZTNF4 (20 ng/ml); average of three experiments
Recorded IC50 values for a group of binders are listed next.
Provide only the numeric value, understood in nM.

Problem: Which IC50 is listed for TACI (d1-29, d111-154)-Fc5 (Fc fusion) AMRSCPEEQYWDPLLGTCMSCKTICNHQSQRTCAAFCRSLSCRKEQGKFYDHLLRDCISCASICGQHPKQCAYFCENKLRSEPKSSDKTHTCPPCPAPEAEGAPSVFLFPPKPKDTLMISRTPEVTCVVVDVSHEDPEVKFNWYVDGVEVHNAKTKPREEQYNSTYRVVSVLTVLHQDWLNGKEYKCKVSNKALPSSIEKTISKAKGQPREPQVYTLPPSRDELTKNQVSLTCLVKGFYPSDIAVEWESNGQPENNYKTTPPVLDSDGSFFLYSKLTVDKSRWQQGNVFSCSVMHEALHNHYTQKSLSLSPGK ?
Solution: 2.31

Problem: Another binder to check: TACI (d1-29)-Fc5 (Fc fusion, Made in CHO DG44 cells) AMRSCPEEQYWDPLLGTCMSCKTICNHQSQRTCAAFCRSLSCRKEQGKFYDHLLRDCISCASICGQHPKQCAYFCENKLRSPVNLPPELRRQRSGEVENNSDNSGRYQGLEHRGSEASPALPGLKEPKSSDKTHTCPPCPAPEAEGAPSVFLFPPKPKDTLMISRTPEVTCVVVDVSHEDPEVKFNWYVDGVEVHNAKTKPREEQYNSTYRVVSVLTVLHQDWLNGKEYKCKVSNKALPSSIEKTISKAKGQPREPQVYTLPPSRDELTKNQVSLTCLVKGFYPSDIAVEWESNGQPENNYKTTPPVLDSDGSFFLYSKLTVDKSRWQQGNVFSCSVMHEALHNHYTQKSLSLSPGK
Solution: 2.07

Problem: Also TACI (d1-29, d107-154)-Fc5 (Fc fusion) AMRSCPEEQYWDPLLGTCMSCKTICNHQSQRTCAAFCRSLSCRKEQGKFYDHLLRDCISCASICGQHPKQCAYFCENEPKSSDKTHTCPPCPAPEAEGAPSVFLFPPKPKDTLMISRTPEVTCVVVDVSHEDPEVKFNWYVDGVEVHNAKTKPREEQYNSTYRVVSVLTVLHQDWLNGKEYKCKVSNKALPSSIEKTISKAKGQPREPQVYTLPPSRDELTKNQVSLTCLVKGFYPSDIAVEWESNGQPENNYKTTPPVLDSDGSFFLYSKLTVDKSRWQQGNVFSCSVMHEALHNHYTQKSLSLSPGK , if possible.
Solution: 4.95
